Catalogue of IC50 readings, one per entry.
# assayed_system: Lp-PLA2 (Homo sapiens, UniProt Q13093)
# Construct: aliquoted and thawed 40 μL of pooled human plasma was previously added; from tissue; host or cells: pooled human plasma
# Sequence (Q13093 22-441): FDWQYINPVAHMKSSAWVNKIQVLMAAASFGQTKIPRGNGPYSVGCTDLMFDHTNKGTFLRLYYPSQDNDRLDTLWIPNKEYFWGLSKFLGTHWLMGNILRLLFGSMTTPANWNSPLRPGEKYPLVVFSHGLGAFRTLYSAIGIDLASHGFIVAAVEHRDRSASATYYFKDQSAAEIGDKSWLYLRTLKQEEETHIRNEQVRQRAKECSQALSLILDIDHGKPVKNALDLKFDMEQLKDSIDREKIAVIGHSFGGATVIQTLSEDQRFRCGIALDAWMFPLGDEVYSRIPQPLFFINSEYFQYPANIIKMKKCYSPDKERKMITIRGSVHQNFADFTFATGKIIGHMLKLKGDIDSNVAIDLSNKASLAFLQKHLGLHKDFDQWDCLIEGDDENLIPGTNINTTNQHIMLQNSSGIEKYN
# method: Lipoprotein-associated phospholipase A2 (Lp-PLA2) human plasma assay (Thio-PAF assay)
# Format: biochemical
# condition: Lp-PLA2 human plasma assay (Thio-PAF), pooled human plasma, 30-min pre-incubation at room temperature
# output: bare number, implied unit nM

Illustrative cases are given below, each with its answer.
O=c1nc(OCc2cc(F)c(Oc3ccc(Cl)c(C(F)(F)F)c3)c(F)c2)cc2n1C[C@]13CO[C@H](CN21)C3 [Example 4]	2.5
CC12CCCCN1c1cc(OCc3ccc(Oc4ccc(F)c(C(F)(F)F)c4)nc3)nc(=O)n1C2 (centres unmarked) [Example 69]	325
CC12CCCCN1c1cc(OCc3cc(F)c(Oc4cnc(C(F)(F)F)nc4)c(F)c3)nc(=O)n1C2 (centres unmarked) [Example 67]	8.7
COc1c(OCc2ccc(F)c(F)c2)nc(=O)n2c1N1C[C@@H]3C[C@]1(CO3)C2 [Example 115]	5.2
O=c1nc(OCc2cc(F)c(F)c(F)c2)cc2n1CC13CC(CN21)C3 [Example 98]	30.2

Assign IC50 to the following record: O=c1nc(OCc2ccc(Oc3ccnc(C(F)F)c3)c(F)c2)cc2n1CC13CCC(CC1)N23 [Example 196]
15.4
